Sourced from the antibiotic and cytotoxicity screens of Wong et al. (2023)

# System: HepG2
# Procedure details: cytotoxicity call (relative viability < 0.9)
# Condition parameters: 10 µM
In all, about 39,000 compounds went through this assay and about 3,300 (8.5%) were called active. Shown is part of a subset that was picked to be rich in actives.
Write down the outcome that applies. Available outcomes: y for active, n for inactive

Hi team, can someone confirm the assay call for COc1ccccc1CN1C(=O)c2ccccc2[C@](Cc2ccccc2I)(C(=O)NCCN2CCOCC2)[C@@H]1c1ccc(CO)cc1 ?
n

Hi team, can someone confirm the assay call for Cc1ccc(CSc2nnc(CCN)o2)cc1 ?
y

Hi team, can someone confirm the assay call for CC(C)NC(=O)Nc1ccc2c(c1)CC(=O)N([C@@H](C)CO)C[C@H](C)[C@H](CN(C)Cc1ccc(C(=O)O)cc1)O2 ?
n

Hi team, can someone confirm the assay call for COC(=O)[C@@H]1C[C@H](C#N)N[C@@H]1c1ccccn1 ?
n

Hi team, can someone confirm the assay call for C[C@@H]1CN([C@H](C)CO)C(=O)Cc2cc(NS(=O)(=O)c3ccc(Cl)cc3)ccc2O[C@@H]1CN(C)C ?
n

Hi team, can someone confirm the assay call for C[C@H](CO)N1C[C@H](C)[C@@H](CN(C)Cc2ccc(Cl)c(Cl)c2)Oc2ccc(NS(=O)(=O)c3ccc(Cl)cc3)cc2C1=O ?
y
